# target: Factor X (FX), P00742
# Sequence (P00742 whole entry, looked up): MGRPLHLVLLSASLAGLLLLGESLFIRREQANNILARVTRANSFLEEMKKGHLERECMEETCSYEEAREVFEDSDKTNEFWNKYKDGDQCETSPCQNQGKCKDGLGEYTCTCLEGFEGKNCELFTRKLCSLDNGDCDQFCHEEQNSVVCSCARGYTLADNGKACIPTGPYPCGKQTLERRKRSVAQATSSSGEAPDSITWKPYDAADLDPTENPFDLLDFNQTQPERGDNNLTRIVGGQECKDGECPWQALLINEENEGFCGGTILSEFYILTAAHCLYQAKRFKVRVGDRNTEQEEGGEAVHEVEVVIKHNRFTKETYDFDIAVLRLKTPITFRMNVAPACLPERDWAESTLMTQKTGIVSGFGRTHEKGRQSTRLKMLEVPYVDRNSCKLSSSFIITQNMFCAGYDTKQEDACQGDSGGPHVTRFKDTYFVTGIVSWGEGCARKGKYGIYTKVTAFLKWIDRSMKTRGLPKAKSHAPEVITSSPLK
assay-endpoint: % of WT kcat/KM (%)
Please reply with the bare figure in % and do not write the unit itself.

Consider FIXa-Y155F/K247N/N249S/R338E/R403E (protein) chain 1: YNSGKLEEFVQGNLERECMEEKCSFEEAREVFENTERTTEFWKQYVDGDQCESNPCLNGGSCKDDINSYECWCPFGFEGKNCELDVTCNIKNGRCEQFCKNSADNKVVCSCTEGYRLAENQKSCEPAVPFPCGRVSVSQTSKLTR chain 2: VVGGEDAKPGQFPWQVVLNGKVDAFCGGSIVNEKWIVTAAHCVETGVKITVVAGEHNIEETEHTEQNRSVIRIIPHHNYNAAINKYNHDIALLELDEPLVLNSYVTPICIADKEYTNIFLKFGSGYVSGWGRVFHKGRSALVLQYLRVPLVDRATCLESTKFTIYNNMFCAGFHEGGRDSCQGDSGGPHVTEVEGTSFLTGIISWGEECAMKGKYGIYTKVSEYVNWIKEKTKLT . Its measured % of WT kcat/KM is 299
